System: Wnt activity (Sp5-Luc reporter, SW480 colon carcinoma cells)
Test: Sp5-Luc Wnt reporter gene assay in SW480 colon carcinoma cells
Assay type: cell-based
Settings: Homo sapiens; SW480 cells stably expressing Sp5-Luc reporter; 42 h incubation; BrightGlo luminescence normalized to DMSO
experimental-readout: pIC50
As a rule, pIC50 stands for the negative log10 of the concentration, concentration in M.

Reference set, count: 8
>>> print(df.to_string())
                              sample_smiles  experimental_readout  result
0  c1ccc(CNCc2cncc(-c3cnc4[nH]nc(-c5nc6c(-c7ccsc7)nccc6[nH]5)c4c3)c2)cc1                 pIC50    6.51
1  Fc1cccc(-c2nccc3[nH]c(-c4n[nH]c5ncc(-c6cncc(CN7CCC(F)(F)C7)c6)cc45)nc23)c1                 pIC50    7.47
2  NC1CN(c2cncc(-c3cnc4[nH]nc(-c5nc6c(-c7cccc(F)c7)nccc6[nH]5)c4c3)n2)C1                 pIC50    6.44
3  Fc1cccc(-c2nccc3[nH]c(-c4n[nH]c5ncc(-c6cncc(OCc7ccccc7)c6)cc45)nc23)c1                 pIC50    5.49
4  Cc1ccc(-c2nccc3[nH]c(-c4n[nH]c5ncc(-c6cncc(N)c6)cc45)nc23)s1                 pIC50    9.05
5  Nc1cncc(-c2cnc3[nH]nc(-c4nc5c(-c6ccccc6F)nccc5[nH]4)c3c2)c1                 pIC50    8.23
6  CC(C)CC(=O)Nc1cncc(-c2cnc3[nH]nc(-c4nc5c(-c6ccc(F)cc6)nccc5[nH]4)c3c2)c1                 pIC50    7.42
7  CCCC(=O)Nc1cncc(-c2cnc3[nH]nc(-c4nc5c(-c6ccsc6)nccc5[nH]4)c3c2)c1                 pIC50    8.00

Moving on to the next compound.
Recorded pIC50 (compound "CC(=O)c1ccc(-c2nccc3[nH]c(-c4n[nH]c5ncc(-c6cncc(NC(=O)C7CCCCC7)c6)cc45)nc23)s1" ): 6.73

----------
System: Wnt activity (Sp5-Luc reporter, SW480 colon carcinoma cells)
Test: Sp5-Luc Wnt reporter gene assay in SW480 colon carcinoma cells
Assay type: cell-based
Conditions: Homo sapiens; SW480 cells stably expressing Sp5-Luc reporter; 42 h incubation; BrightGlo luminescence normalized to DMSO
# if measured IC50 < 200 nM: fulfilled  # else: not fulfilled

Before answering, review these 5 worked examples.
In [3]: df
Out[3]:
                              sample_smiles  assigned_label
0  CC(C)CC(=O)Nc1cncc(-c2cnc3[nH]nc(-c4nc5c(-c6ccc(F)s6)nccc5[nH]4)c3c2)c1       fulfilled
1  CC(C)C(=O)Nc1cncc(-c2cnc3[nH]nc(-c4nc5c(N6CCN(C)CC6)nccc5[nH]4)c3c2)c1   not fulfilled
2  Fc1cccc(-c2nccc3[nH]c(-c4n[nH]c5ncc(-c6cncc(OC7CCCCC7)c6)cc45)nc23)c1   not fulfilled
3  FC1(F)CCN(Cc2cncc(-c3cnc4[nH]nc(-c5nc6c(N7CCCCC7)nccc6[nH]5)c4c3)c2)C1   not fulfilled
4  CN(C)c1cncc(-c2cnc3[nH]nc(-c4nc5c(-c6cccc(F)c6)nccc5[nH]4)c3c2)c1       fulfilled

Check if IC50 falls below 200 nM for "O=C(Nc1cncc(-c2cnc3[nH]nc(-c4nc5c(-c6ccsc6)nccc5[nH]4)c3c2)c1)c1ccccc1" .
fulfilled

Check if IC50 falls below 200 nM for "CCCC(=O)Nc1cncc(-c2cnc3[nH]nc(-c4nc5c(-c6ccncc6)nccc5[nH]4)c3c2)c1" .
not fulfilled

----------
System: Wnt activity (Sp5-Luc reporter, SW480 colon carcinoma cells)
Experiment: Sp5-Luc Wnt reporter gene assay in SW480 colon carcinoma cells
Assay type: cell-based
Conditions: Homo sapiens; SW480 cells stably expressing Sp5-Luc reporter; 42 h incubation; BrightGlo luminescence normalized to DMSO
pIC50: −log10 of the molar value.
Mark criterion not met for pIC50 values under 8, and criterion met for everything at or above.

Before answering, review these 3 worked examples.
>>> df
                              sample_smiles     assigned_label
0  O=C(Nc1cncc(-c2cnc3[nH]nc(-c4nc5c(N6CCCCC6)nccc5[nH]4)c3c2)c1)C1CC1  criterion not met
1  Cc1cn(-c2nccc3[nH]c(-c4n[nH]c5ncc(-c6cncc(NC(=O)CC(C)C)c6)cc45)nc23)cn1      criterion met
2  O=C(Nc1cncc(-c2cnc3[nH]nc(-c4nc5c(-c6cccc(F)c6)nccc5[nH]4)c3c2)c1)C1CC1      criterion met

Can "Oc1cncc(-c2cnc3[nH]nc(-c4nc5c(-c6cccc(F)c6)nccc5[nH]4)c3c2)c1" be said to have pIC50 at or above 8?
criterion not met

Can "CCC(=O)Nc1cncc(-c2cnc3[nH]nc(-c4nc5c(-c6cccs6)nccc5[nH]4)c3c2)c1" be said to have pIC50 at or above 8?
criterion not met

Can "CCCCC(=O)Nc1cncc(-c2cnc3[nH]nc(-c4nc5c(-c6cc(F)cc(NCCN(C)C)c6)nccc5[nH]4)c3c2)c1" be said to have pIC50 at or above 8?
criterion not met

----------
Tested on: Wnt activity (Sp5-Luc reporter, SW480 colon carcinoma cells)
Assay: Sp5-Luc Wnt reporter gene assay in SW480 colon carcinoma cells
Type: cell-based
Conditions: Homo sapiens; SW480 cells stably expressing Sp5-Luc reporter; 42 h incubation; BrightGlo luminescence normalized to DMSO
pIC50: −log10 of the molar value.
Mark FALSE for pIC50 values under 7, and TRUE for everything at or above.

Before answering, review these 5 worked examples.
>>> df
                                   compound  assigned_label
0  CC(C)Nc1cncc(-c2cnc3[nH]nc(-c4nc5c(-c6ccoc6)nccc5[nH]4)c3c2)c1 [Compound 272]            TRUE
1  CN1CCN(c2nccc3[nH]c(-c4n[nH]c5ncc(-c6cncc(CN7CCCCC7)c6)cc45)nc23)CC1 [Compound 223]           FALSE
2  COc1cncc(-c2cnc3[nH]nc(-c4nc5c(-c6cccc(F)c6)nccc5[nH]4)c3c2)c1 [Compound 896]            TRUE
3  O=C(Nc1cncc(-c2cnc3[nH]nc(-c4nc5c(-c6ccccn6)nccc5[nH]4)c3c2)c1)c1ccccc1 [Compound 141]           FALSE
4  CN(C)Cc1cncc(-c2cnc3[nH]nc(-c4nc5c(-c6cccc(F)c6)nccc5[nH]4)c3c2)c1 [Compound 13]           FALSE

Can CN1CCN(c2nccc3[nH]c(-c4n[nH]c5ncc(-c6cncnc6)cc45)nc23)CC1 [Compound 234] be said to have pIC50 at or above 7?
FALSE

Can CN1CCN(c2nccc3[nH]c(-c4n[nH]c5ncc(-c6cncc(N)c6)cc45)nc23)CC1 [Compound 211] be said to have pIC50 at or above 7?
FALSE

Can CCC(=O)Nc1cncc(-c2cnc3[nH]nc(-c4nc5c(-c6cccc(F)c6)nccc5[nH]4)c3c2)c1 [Compound 1] be said to have pIC50 at or above 7?
TRUE

Can Cc1ccc(-c2nccc3[nH]c(-c4n[nH]c5ncc(-c6cncc(CN7CCCCC7)c6)cc45)nc23)s1 [Compound 353] be said to have pIC50 at or above 7?
FALSE

Can Fc1cccc(-c2nccc3[nH]c(-c4n[nH]c5ncc(C6CCNCC6)cc45)nc23)c1 [Compound 885] be said to have pIC50 at or above 7?
FALSE

Can c1ccc(CNCc2cncc(-c3cnc4[nH]nc(-c5nc6c(-c7cccnc7)nccc6[nH]5)c4c3)c2)cc1 [Compound 101] be said to have pIC50 at or above 7?
FALSE

Can Fc1cccc(-c2nccc3[nH]c(-c4n[nH]c5ncc(-c6ccccn6)cc45)nc23)c1 [Compound 901] be said to have pIC50 at or above 7?
FALSE

----------
Some compounds, each annotated with its measured pIC50.
Test system: Wnt activity (Sp5-Luc reporter, SW480 colon carcinoma cells)
Test: Sp5-Luc Wnt reporter gene assay in SW480 colon carcinoma cells
Format: cell-based
Conditions: Homo sapiens; SW480 cells stably expressing Sp5-Luc reporter; 42 h incubation; BrightGlo luminescence normalized to DMSO
As a rule, pIC50 stands for the negative log10 of the concentration, concentration in M.

Reference set, count: 3
>>> df
                                   compound  experimental_readout  result
0  c1cc2[nH]c(-c3n[nH]c4ncc(-c5cncc(CNCC6CCCC6)c5)cc34)nc2c(-c2ccoc2)n1 [Compound 284]                 pIC50    6.06
1  FC1(F)CCN(Cc2cncc(-c3cnc4[nH]nc(-c5nc6c(-c7cccs7)nccc6[nH]5)c4c3)c2)C1 [Compound 311]                 pIC50    7.64
2  CCCC(=O)Nc1cncc(-c2cnc3[nH]nc(-c4nc5c(-c6cc(F)cc(CNS(C)(=O)=O)c6)nccc5[nH]4)c3c2)c1 [Compound 407]                 pIC50    7.13

Given the compound CC(C)CC(=O)Nc1cncc(-c2cnc3[nH]nc(-c4nc5c(-c6cc(F)cc(OCCN(C)C)c6)nccc5[nH]4)c3c2)c1 [Compound 1192] and test system Wnt activity (Sp5-Luc reporter, SW480 colon carcinoma cells), the measured pIC50 is 6.40

Given the compound CCNCc1cncc(-c2cnc3[nH]nc(-c4nc5c(-c6ccoc6)nccc5[nH]4)c3c2)c1 [Compound 266] and test system Wnt activity (Sp5-Luc reporter, SW480 colon carcinoma cells), the measured pIC50 is 6.47

Given the compound O=C(Nc1cncc(-c2cnc3[nH]nc(-c4nc5c(-c6ccc(F)cc6)nccc5[nH]4)c3c2)c1)C1CCC1 [Compound 46] and test system Wnt activity (Sp5-Luc reporter, SW480 colon carcinoma cells), the measured pIC50 is 8.30

Given the compound CN(C)Cc1cncc(-c2cnc3[nH]nc(-c4nc5c(N6CCCCC6)nccc5[nH]4)c3c2)c1 [Compound 169] and test system Wnt activity (Sp5-Luc reporter, SW480 colon carcinoma cells), the measured pIC50 is 5.64

Given the compound CC(=O)c1ccc(-c2nccc3[nH]c(-c4n[nH]c5ncc(-c6cccnc6)cc45)nc23)s1 [Compound 368] and test system Wnt activity (Sp5-Luc reporter, SW480 colon carcinoma cells), the measured pIC50 is 7.98

Given the compound c1cncc(-c2cnc3[nH]nc(-c4nc5c(-c6cccnc6)nccc5[nH]4)c3c2)c1 [Compound 82] and test system Wnt activity (Sp5-Luc reporter, SW480 colon carcinoma cells), the measured pIC50 is 7.38

Given the compound CN(C)Cc1cncc(-c2cnc3[nH]nc(-c4nc5c(-c6cccs6)nccc5[nH]4)c3c2)c1 [Compound 299] and test system Wnt activity (Sp5-Luc reporter, SW480 colon carcinoma cells), the measured pIC50 is 5.84

Given the compound CN(C)c1cncc(-c2cnc3[nH]nc(-c4nc5c(-c6cccs6)nccc5[nH]4)c3c2)c1 [Compound 293] and test system Wnt activity (Sp5-Luc reporter, SW480 colon carcinoma cells), the measured pIC50 is 7.43

The reported numbers originate from patent US9493487B2.
